# Target system: Bovine pancreas α-chymotrypsin (Bos taurus, UniProt P00766, DEL14-15/DEL147-148)
# Construct: Bovine pancreas α-chymotrypsin (type II, Sigma)
# Procedure details: Chymotrypsin assay
Endpoint: IC50 (µM)
Quick reminder: number only, in µM, skip the unit.

Which IC50 is reported with Bovine pancreas α-chymotrypsin (Bos taurus, UniProt P00766, DEL14-15/DEL147-148) for this entry: COc1ccc(C[C@H](Nc2nc3ccc(NC(=O)Oc4ccccc4)c(C)c3c(=O)o2)C(=O)N(C)Cc2ccccc2)cc1 [Example 11q] ?
2.4

====

# Tested on: HCMV engineered virus RC256
# Procedure details: microbe, parasite or virus in culture
# Type: cell-based, human cytomegalovirus
# Condition notes: Human betaherpesvirus 5, Fibroblast, read-out: Antiviral Activity RC256, first value (EC50)
Endpoint: EC50 (µM)
Numeric only. Scale: µM

Which EC50 is reported for this compound? `CC(=O)NCc1ccc2nc(N[C@@H](Cc3ccccc3)C(=O)N(C)Cc3ccccc3)oc(=O)c2c1C`
16

Item under review: `Cc1c(CNC(=O)OCc2ccccc2)ccc2nc(N[C@@H](Cc3ccccc3)C(=O)N(C)CCc3ccccc3)oc(=O)c12` . Reported EC50?
45

EC50 lookup needed for `COc1ccc(C[C@H](Nc2nc3ccc(NC(=O)OC(C)(C)C)c(C)c3c(=O)o2)C(=O)N(C)C)cc1` , thanks.
45

// EC50 lookup, key: COC(=O)[C@H](Cc1ccccc1)Nc1nc2ccc(NC(=O)Cc3cccs3)c(C)c2c(=O)o1 [Example 11g]
10
